Assignment: determine reported TC for the given compounds.
Organism: Rattus norvegicus
Test: Open TG-GATES - Regimen: Daily Repeat
Format: toxicity, organism-based, Sprague-Dawley
Set-up: regimen Daily Repeat, gender Male, age 6 weeks
Conditions: in vivo, po, 100 mg/kg, 72 h, tissue Plasma, route gavage, dose level Low, time 3 day
A complete answer gives the number and then names the unit.

These recorded examples may help you get a feel for the data.
INSERT INTO results (compound, observed) VALUES
  ('CC(=O)[C@@]1(O)CC[C@H]2[C@@H]3C=C(Cl)C4=CC(=O)CC[C@]4(C)[C@H]3CC[C@@]21C', '74 mg/dL'),
  ('O=C(O)c1ccccc1Nc1ccccc1', '75.6 mg/dL'),
  ('CCCCNC(=O)NS(=O)(=O)c1ccc(C)cc1 [TOLBUTAMIDE]', '77 mg/dL');

Now, please, on to the next compound.
// query I'd like to know its TC. The compound in question is CC(S)C(=O)NCC(=O)O (centres undefined)
// result 76.6 mg/dL

----------
Organism: Rattus norvegicus
Assay: Open TG-GATES - Regimen: Daily Repeat
Assay type: toxicity, organism-based, Sprague-Dawley
Set-up: regimen Daily Repeat, gender Male, age 6 weeks
Conditions: in vivo, po, 100 mg/kg, […], tissue Plasma, route gavage, dose level Low, time 7 day
Assignment: determine reported Cl for the given compounds.
One number for each entry, in meq/L.

These recorded examples may help you get a feel for the data.
INSERT INTO measurements (compound, observed) VALUES
  ('CCCCNC(=O)NS(=O)(=O)c1ccc(C)cc1 [TOLBUTAMIDE]', 104.4),
  ('O=C(O)c1ccccc1Nc1ccccc1 [FENAMIC ACID]', 105.6),
  ('CC(S)C(=O)NCC(=O)O (centres undefined) [TIOPRONIN]', 107.4);

Now, please, on to the next compound.
// query I'd like to know its Cl. The compound in question is CC(=O)[C@@]1(O)CC[C@H]2[C@@H]3C=C(Cl)C4=CC(=O)CC[C@]4(C)[C@H]3CC[C@@]21C [CHLORMADINONE]
// result 106.8

----------
Species: Rattus norvegicus
Assay: Open TG-GATES - Regimen: Daily Repeat
Assay type: toxicity, organism-based, Sprague-Dawley
Parameters: regimen Daily Repeat, gender Male, age 6 weeks
Conditions: in vivo, po, 0 mg/kg, […], tissue Blood, route gavage, dose level Control, time 7 day
Assignment: determine reported Bas for the given compounds.
One number for each entry, in %.

These recorded examples may help you get a feel for the data.
INSERT INTO results (compound, result_type, observed) VALUES
  ('COc1ccc([C@@H]2Sc3ccccc3N(CCN(C)C)C(=O)[C@@H]2OC(C)=O)cc1', 'Bas', 0),
  ('CC(=O)[C@@]1(O)CC[C@H]2[C@@H]3C=C(Cl)C4=CC(=O)CC[C@]4(C)[C@H]3CC[C@@]21C', 'Bas', 0),
  ('Nc1ccc(Cc2ccc(N)cc2)cc1', 'Bas', 0.2),
  ('CN(C/C=C/C#CC(C)(C)C)Cc1cccc2ccccc12', 'Bas', 1);

// query I'd like to know its Bas. The compound in question is NS(=O)(=O)c1cc(C(=O)O)c(NCc2ccco2)cc1Cl [FUROSEMIDE]
// result 0.6

----------
Species: Rattus norvegicus
Assay: Open TG-GATES - Regimen: Daily Repeat
Format: toxicity, organism-based, Sprague-Dawley
Design: regimen Daily Repeat, gender Male, age 6 weeks
Conditions: in vivo, po, 300 mg/kg, 72 h, tissue Blood, route gavage, dose level Middle, time 3 day
RESULT_TYPE: Eos (%)
Numbers only, in %.

These recorded examples may help you get a feel for the data.
INSERT INTO measurements (compound, unit, observed) VALUES
  ('CC(S)C(=O)NCC(=O)O (centres undefined) [TIOPRONIN]', '%', 0.8),
  ('CC(=O)[C@@]1(O)CC[C@H]2[C@@H]3C=C(Cl)C4=CC(=O)CC[C@]4(C)[C@H]3CC[C@@]21C [CHLORMADINONE]', '%', 1),
  ('O=C(O)c1ccccc1Nc1ccccc1 [FENAMIC ACID]', '%', 1);

Now, please, on to the next compound.
// query I'd like to know its Eos. The compound in question is CCCCNC(=O)NS(=O)(=O)c1ccc(C)cc1 [TOLBUTAMIDE]
// result 1

----------
Organism: Rattus norvegicus
Test: Open TG-GATES - Regimen: Daily Repeat
Assay type: toxicity, organism-based, Sprague-Dawley
Parameters: regimen Daily Repeat, gender Male, age 6 weeks
Conditions: in vivo, po, 100 mg/kg, […], tissue Blood, route gavage, dose level Low, time 28 day
Assignment: determine reported Hb for the given molecules.
Give bare numbers, in g/dL.

These recorded examples may help you get a feel for the data.
INSERT INTO assay_data (molecule, observed) VALUES
  ('CC(=O)[C@@]1(O)CC[C@H]2[C@@H]3C=C(Cl)C4=CC(=O)CC[C@]4(C)[C@H]3CC[C@@]21C [CHLORMADINONE]', 15.5),
  ('CC(S)C(=O)NCC(=O)O (centres undefined) [TIOPRONIN]', 15.2),
  ('O=C(O)c1ccccc1Nc1ccccc1 [FENAMIC ACID]', 15.1);

Now, please, on to the next molecule.
// query I'd like to know its Hb. The molecule in question is CCCCNC(=O)NS(=O)(=O)c1ccc(C)cc1 [TOLBUTAMIDE]
// result 15.6

----------
Species on record: Rattus norvegicus
Test: Open TG-GATES - Regimen: Daily Repeat
Assay type: toxicity, organism-based, Sprague-Dawley
Parameters: regimen Daily Repeat, gender Male, age 6 weeks
Details: in vivo, po, 100 mg/kg, […], tissue Blood, route gavage, dose level Low, time 7 day
RESULT_TYPE: RBC (x10_4/ul)
Give bare numbers, in x10_4/ul.

INSERT INTO assay_data (compound, unit, observed) VALUES
  ('O=C(O)c1ccccc1Nc1ccccc1', 'x10_4/ul', 642.8),
  ('CC(=O)[C@@]1(O)CC[C@H]2[C@@H]3C=C(Cl)C4=CC(=O)CC[C@]4(C)[C@H]3CC[C@@]21C', 'x10_4/ul', 720.2),
  ('CCCCNC(=O)NS(=O)(=O)c1ccc(C)cc1 [TOLBUTAMIDE]', 'x10_4/ul', 667);

// query I'd like to know its RBC. The compound in question is CC(S)C(=O)NCC(=O)O (centres undefined)
// result 647

----------
Species on record: Rattus norvegicus
Assay: Open TG-GATES - Regimen: Single
Type: toxicity, organism-based, Sprague-Dawley
Design: regimen Single, gender Male, age 6 weeks
Details: in vivo, po, 0 mg/kg, 6 h, tissue Blood, route gavage, dose level Control
RESULT_TYPE: APTT (s)
Numbers only, in s.

Give one value of APTT per listed compound.
1. Nc1ccc(Cc2ccc(N)cc2)cc1
2. CC(S)C(=O)NCC(=O)O (configuration not stated) [TIOPRONIN]

// result
1: 14.9; 2: 21.5

----------
Assignment: determine reported Hb for the given molecules.
Species: Rattus norvegicus
Test: Open TG-GATES - Regimen: Daily Repeat
Assay type: toxicity, organism-based, Sprague-Dawley
Parameters: regimen Daily Repeat, gender Male, age 6 weeks
Conditions: in vivo, po, 0 mg/kg, […], tissue Blood, route gavage, dose level Control, time 7 day
Answers are plain numbers, in g/dL.

INSERT INTO assay_data (molecule, unit, observed) VALUES
  ('O=c1ccc2ccccc2o1', 'g/dL', 13.8),
  ('CCN(CC)C(=S)SSC(=S)N(CC)CC', 'g/dL', 12.8),
  ('CCCCNC(=O)NS(=O)(=O)c1ccc(C)cc1 [TOLBUTAMIDE]', 'g/dL', 13.6),
  ('Nc1ccc(Cc2ccc(N)cc2)cc1', 'g/dL', 13.6),
  ('CN(C/C=C/C#CC(C)(C)C)Cc1cccc2ccccc12', 'g/dL', 13.9),
  ('NS(=O)(=O)c1cc(C(=O)O)c(NCc2ccco2)cc1Cl [FUROSEMIDE]', 'g/dL', 13.7),
  ('CCO', 'g/dL', 14.2),
  ('CC(S)C(=O)NCC(=O)O (configuration not stated)', 'g/dL', 13.8),
  ('CN(CCOc1ccc(CC2SC(=O)NC2=O)cc1)c1ccccn1.O=C(O)/C=C\C(=O)O (configuration not stated) [ROSIGLITAZONE MALEATE]', 'g/dL', 13.4),
  ('CC(=O)[C@@]1(O)CC[C@H]2[C@@H]3C=C(Cl)C4=CC(=O)CC[C@]4(C)[C@H]3CC[C@@]21C', 'g/dL', 13.8);

Give one value of Hb per listed molecule.
1. O=C(O)c1ccccc1Nc1ccccc1
2. CCCCC1C(=O)N(c2ccccc2)N(c2ccccc2)C1=O

// result
[13.5, 13.9]
